Values compiled from patent US20230086702A1.

Tgt: DLK (Homo sapiens, UniProt Q12852)
Construct: 10 nM DLK, catalytic domain, Carna Biosiences; purchased Carna Biosciences ('Carna Biosiences' [sic])
Sequence (Q12852 125-366 limits assumed): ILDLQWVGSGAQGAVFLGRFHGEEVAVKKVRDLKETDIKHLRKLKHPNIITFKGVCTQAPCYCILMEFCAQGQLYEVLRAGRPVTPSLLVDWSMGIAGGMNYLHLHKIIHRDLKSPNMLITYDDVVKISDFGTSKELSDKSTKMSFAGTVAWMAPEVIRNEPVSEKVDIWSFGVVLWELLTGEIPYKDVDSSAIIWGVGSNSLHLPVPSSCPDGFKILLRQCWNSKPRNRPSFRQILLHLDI
Protocol description: DLK biochemical assay (TR-FRET, MKK7 phosphorylation)
Setup conditions: DLK catalytic domain, MKK7 substrate, 60 μM ATP
Measurement label: IC50 (nM)

For orientation, consider the following solved cases.
| Compound | IC50 [nM] |
| --- | --- |
| CC[C@H](C)NC(=O)c1cc(-c2cnn(C(c3ccnc(OC)c3)C(C)C)c2)cc2nc(N)nn12 (single isomer, unassigned) [Example I-127] | 17 |
| CC[C@H](C)NC(=O)c1cc(-c2cnn(C(c3ccc(OCC(F)(F)F)nc3)C(C)C)c2)cc2nc(N)nn12 (single isomer, unassigned) [Example I-118] | 8.6 |
| CC[C@H](c1ccc(C(F)(F)F)nc1)n1cc(-c2cc(C(=O)N[C@@H](C)CC)n3nc(N)nc3c2)cn1 (single isomer, unassigned) | 7 |

(1) CC[C@H](C)NC(=O)c1cc(-c2cnn(C(c3ccccc3)C3CCC3)c2)cn2nc(N)nc12 (mixture of isomers)
(2) CC[C@H](C)NC(=O)c1cc(-c2cnn(C3CCN(CC)CC3)c2)cn2nc(N)nc12 (single isomer, unassigned)
**Q:** // max by IC50 over [ 1 , 2 ] Let me know the label of the one you choose.
**A:** 2

(I) CC[C@H](C)NC(=O)c1cc(-c2cnn(C(c3ccccc3)C3(C)CC3)c2)cn2nc(N)nc12 (mixture of isomers) [Example I-28]
(II) CC[C@H](C)NC(=O)c1cc(-c2cnn(C(c3c(F)cncc3F)C(C)C)c2)cc2nc(N)nn12 (mixture of isomers) [Example I-123]
**Q:** // max by IC50 over [ I , II ] Let me know the label of the one you choose.
**A:** I
(I: 9.2 nM, II: 5.9 nM)
